Experimental System: GABAA receptors (α5β2γ2) (Homo sapiens, UniProt P18507+P31644)
Construct: expressed in transfected cells
Sequence (P31644 32-462): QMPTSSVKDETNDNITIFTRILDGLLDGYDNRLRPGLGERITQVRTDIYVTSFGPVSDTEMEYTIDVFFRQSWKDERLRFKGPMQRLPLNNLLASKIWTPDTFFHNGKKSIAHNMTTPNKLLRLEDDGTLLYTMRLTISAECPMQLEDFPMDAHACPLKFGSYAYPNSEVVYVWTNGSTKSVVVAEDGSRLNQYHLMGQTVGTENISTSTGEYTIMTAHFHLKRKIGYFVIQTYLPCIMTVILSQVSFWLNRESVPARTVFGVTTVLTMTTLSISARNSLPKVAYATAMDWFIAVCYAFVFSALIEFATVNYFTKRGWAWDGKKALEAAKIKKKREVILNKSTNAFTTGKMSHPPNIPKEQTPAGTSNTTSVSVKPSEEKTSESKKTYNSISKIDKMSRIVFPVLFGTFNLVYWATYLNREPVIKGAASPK
Sequence (P47870 25-512, further chain): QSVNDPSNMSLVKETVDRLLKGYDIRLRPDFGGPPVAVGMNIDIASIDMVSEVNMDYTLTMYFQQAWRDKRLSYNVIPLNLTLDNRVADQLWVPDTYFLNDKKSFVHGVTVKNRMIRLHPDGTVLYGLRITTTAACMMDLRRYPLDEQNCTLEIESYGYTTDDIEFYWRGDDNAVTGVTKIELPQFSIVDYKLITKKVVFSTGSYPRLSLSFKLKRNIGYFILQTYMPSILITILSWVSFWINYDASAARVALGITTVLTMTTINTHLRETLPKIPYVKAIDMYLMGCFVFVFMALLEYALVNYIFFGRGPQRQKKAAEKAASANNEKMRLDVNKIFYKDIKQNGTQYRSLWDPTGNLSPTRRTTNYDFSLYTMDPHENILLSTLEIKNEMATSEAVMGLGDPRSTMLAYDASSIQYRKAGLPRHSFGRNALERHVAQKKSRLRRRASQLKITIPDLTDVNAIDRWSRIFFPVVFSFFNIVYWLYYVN
Sequence (P18507 40-475): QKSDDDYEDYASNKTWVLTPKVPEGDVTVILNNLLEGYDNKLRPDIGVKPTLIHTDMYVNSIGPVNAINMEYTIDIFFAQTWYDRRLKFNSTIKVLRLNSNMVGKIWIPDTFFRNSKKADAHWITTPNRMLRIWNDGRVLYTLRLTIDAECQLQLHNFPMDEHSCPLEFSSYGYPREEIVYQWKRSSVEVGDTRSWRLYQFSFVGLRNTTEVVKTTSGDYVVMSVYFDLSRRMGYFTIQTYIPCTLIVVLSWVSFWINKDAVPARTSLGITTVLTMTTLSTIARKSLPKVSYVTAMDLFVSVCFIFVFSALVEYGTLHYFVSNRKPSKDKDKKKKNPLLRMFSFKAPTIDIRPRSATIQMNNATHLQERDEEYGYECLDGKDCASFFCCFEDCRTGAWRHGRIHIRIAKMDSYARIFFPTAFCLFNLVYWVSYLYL
Method Description: Positive allosteric modulator activity: potentiation of EC20 GABA current in oocytes
Format: cell-based
Test Context: read-out: GABA α5 Functional Data (potentiation of EC20 GABA); @ 100 nM; ranges
Reported Metric: activation at 0.1 µM

In the examples that follow, each entry is paired with its recorded activation at 0.1 µM.
COc1ccc2c(c1)-n1nncc1Cc1c(C#Cc3ccn(C)n3)ncn1-2 :: > 50%
CCc1cncc(C#Cc2ncn3c2Cc2c(COC)nnn2-c2cc(Cl)ccc2-3)c1 :: > 50%
COc1ccc2c(c1)-n1nncc1Cc1c(C3=N[C@H](c4ccccc4)CO3)ncn1-2 :: 20 to 50%

**Query** Recorded activation at 0.1 µM for COCc1nnc2n1Cc1c(C3=NC(C)CO3)ncn1-c1ccc(Cl)cc1-2 (stereo not shown) , please?
**Result** 20 to 50%
